Each recorded value in this set is attributed to PubChem BioAssay.

# TEST DETAILS: binders from COS7 lysate, DM2A8 probe, primary screen, torsin A project, cell lysate, small-molecule microarray, fluorescence 635/667 (AID 1065)
# STUDY CONDITIONS: higher = more signal, COS7 lysate expressing mutant human TOR1A
ASSAY READOUT: composite z-score

Please supply the value of reported composite z-score for the item CC(C)=CCCC(C)=CC(O)C1C=CC2C(=O)N(c3ccccc3)C(=O)C2N1Nc1ccccc1F (centres undefined) -0.113

Give composite z-score for C=C(COC)/C(=C/C[C@H](OC(C)=O)c1cccc(OCCO)c1)c1cnc2ccccc2c1 0.569

Give recorded composite z-score. C=CCNC(=O)[C@@H]1[C@H]2C(=O)O[C@H](c3ccccc3)[C@H](c3ccccc3)N2[C@H](c2ccc(O)cc2)[C@@]12C(=O)Nc1ccc(C#CCC(C(=O)OC)C(=O)OC)cc12 0.198

Tell me composite z-score reported for O=C(O)[C@@H]1C[C@@H]2C(=O)N3CCC[C@H]3C(=O)N2[C@@H]1c1cccc(OCCO)c1 2.45

Determine from records and report composite z-score for C=C(COC)C(=O)CC[C@@H](OC(=O)c1cccnc1)c1ccccc1OCCO 1.66

Report measured composite z-score; entry is CCN(CC)c1ccc(N2CC=CC34O[C@@H]5/C=C\CCC(C)OC(=O)C5[C@H]3C(=O)N(C(C)CO)[C@@H]4C2=O)cc1 (some centres undefined) -0.362

Recall and state the measured composite z-score for COc1ccc(CCNC(=O)[C@@]2(Cc3ccccc3I)c3ccccc3C(=O)N(Cc3ccccc3Cl)[C@H]2c2ccc(CO)cc2)cc1 . 0.348

Specify measured composite z-score for C=C(/C(=C/C[C@@H](OC(=O)c1ccncc1)c1cccc(OCCO)c1)c1cnc2ccccc2c1)C(C)C . 0.375

Tell us which composite z-score value is on record for COc1ccc([Si](C)(C)[C@H]2[C@H](CCO)O[C@@]3(C(=O)N(Cc4ccccc4)c4ccc(N5C(=O)c6ccccc6Oc6ccccc65)cc43)[C@@H]2C)cc1 -0.393

State, in one line, measured composite z-score of CC(C)C[C@@H]1NC(=O)CNC(=O)[C@@]23C(=O)N[C@@H](Cc4ccccc4)C2[C@H](C)[C@@]2(C)O[C@H]2C3/C=C/C/C=C\CNC1=O (some centres undefined) 0.109

Give composite z-score for the following compound: COCCOC(=O)N1C(=O)[C@@]2(c3cc(C#CC4(O)CCCCCC4)ccc31)[C@H](C(=O)N1CCN(c3ncccn3)CC1)[C@H]1C(=O)O[C@H](c3ccccc3)[C@H](c3ccccc3)N1[C@@H]2c1ccccc1OCCO 0.825

Quote composite z-score reported for C[C@]1(C(=O)NCC(F)(F)F)c2ccccc2C(=O)N(Cc2ccccc2)[C@H]1c1ccc(CO)cc1 please. -1.34

Answer with reported composite z-score of COc1cc(CO)cc(I)c1O[C@H]1C=C(C(=O)NCCO)C[C@@H](NCC2CCCCC2)[C@@H]1O -0.422

Fill in composite z-score for record COc1cc(NN2C(C(O)c3cc(OC)c(OC)c(OC)c3)C=CC3C(=O)N(c4ccccc4)C(=O)C32)cc(OC)c1OC (centres undefined) 0.512
